system: human ether-à-go-go-related gene (hERG) potassium channel (human, UniProt Q12809)
Sequence (Q12809 whole entry, looked up): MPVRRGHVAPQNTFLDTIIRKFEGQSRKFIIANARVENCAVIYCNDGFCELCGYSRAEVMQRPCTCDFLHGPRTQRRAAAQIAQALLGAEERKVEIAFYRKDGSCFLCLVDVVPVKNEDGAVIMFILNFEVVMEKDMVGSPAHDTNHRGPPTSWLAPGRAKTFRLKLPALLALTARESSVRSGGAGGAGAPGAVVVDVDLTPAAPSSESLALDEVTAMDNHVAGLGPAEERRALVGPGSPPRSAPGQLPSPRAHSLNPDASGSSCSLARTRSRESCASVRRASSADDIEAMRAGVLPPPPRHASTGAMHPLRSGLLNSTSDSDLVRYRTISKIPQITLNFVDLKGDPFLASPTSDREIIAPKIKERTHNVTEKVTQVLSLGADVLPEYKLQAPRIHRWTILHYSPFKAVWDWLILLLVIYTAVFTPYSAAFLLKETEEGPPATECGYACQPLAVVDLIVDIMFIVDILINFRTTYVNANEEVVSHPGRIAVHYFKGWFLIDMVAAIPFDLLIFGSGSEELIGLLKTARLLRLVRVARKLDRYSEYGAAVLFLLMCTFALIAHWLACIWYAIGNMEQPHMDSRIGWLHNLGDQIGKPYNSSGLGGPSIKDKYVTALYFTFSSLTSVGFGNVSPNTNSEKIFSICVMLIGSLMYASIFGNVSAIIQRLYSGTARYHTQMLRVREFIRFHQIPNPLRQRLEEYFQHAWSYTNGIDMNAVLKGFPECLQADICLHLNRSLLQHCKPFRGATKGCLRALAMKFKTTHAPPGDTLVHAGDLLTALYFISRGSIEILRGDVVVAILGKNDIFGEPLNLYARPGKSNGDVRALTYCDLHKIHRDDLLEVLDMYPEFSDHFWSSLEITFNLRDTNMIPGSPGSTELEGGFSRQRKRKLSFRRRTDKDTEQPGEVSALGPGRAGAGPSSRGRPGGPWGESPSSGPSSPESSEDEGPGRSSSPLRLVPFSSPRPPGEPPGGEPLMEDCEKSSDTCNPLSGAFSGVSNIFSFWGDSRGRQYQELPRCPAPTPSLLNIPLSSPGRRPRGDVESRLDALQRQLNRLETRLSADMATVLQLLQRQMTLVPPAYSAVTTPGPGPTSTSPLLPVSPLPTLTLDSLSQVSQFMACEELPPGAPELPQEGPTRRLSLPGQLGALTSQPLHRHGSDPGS
experimentSummary: primary screen, population patch clamp on CHO cells stably expressing hERG; higher = less effect of the substance
Description: Briefly, Chinese hamster ovary (CHO) cells stably expressing the hERG channel were dislodged from tissue culture flasks and dispensed into PPC plates. […] Small molecule effects on hERG current density were quantified by […].
Among all 310,000 compounds or so, about 2,200 (0.71%) showed an effect of 50% or more. The effect is printed as a negative number. Only a selection was taken, and strong results are over-represented in it overall.
outcomeMeasure: hERG current change (%, negative = inhibition) at 1uM (%)

molecule=CCN1/C(=C/C(C)=C/c2sc3ccccc3[n+]2CC)Sc2ccccc21.[I-] reading=10.6
molecule="O=C(Nc1ccccc1SCC1CSc2nc3ccccc3c(=O)n21)c1cccc(Cl)c1 (stereo not shown)" reading=-49.6
molecule=CCN1/C(=C/c2ccc3cc(C)ccc3[n+]2CC)Sc2ccccc21.[I-] reading=-100
molecule=CN(CC(=O)Nc1cccc(S(=O)(=O)NC2=NCCCCC2)c1)Cc1ccc(C(C)(C)C)cc1.O=C(O)C(=O)O reading=12.9
molecule="CC(OC(=O)CC1CCCCC1)C(=O)Nc1cccc(C#N)c1 (stereo not shown)" reading=6.92
molecule=Cc1ccnc(NS(=O)(=O)c2ccc(NS(=O)(=O)c3ccc(Br)cc3)cc2)n1 reading=16.1
molecule="Cc1cccc(C(=O)Nc2ccccc2SCC2CSc3nc4ccccc4c(=O)n32)c1 (stereo not shown)" reading=-66.5
molecule=Cc1ccc(-n2c(-c3ccc(Br)cc3)c[n+]3c2CCc2ccc4cccnc4c2-3)cc1.[Br-] reading=-86.6
molecule=CCC(=O)/C=C1/Sc2ccccc2N1CC reading=10.1
molecule=COc1ccc(-n2c(-c3ccc(Cl)cc3)c[n+]3c2CCCCC3)cc1.[Br-] reading=8.19
molecule=COc1ccc(-n2c(-c3ccc(Br)cc3)c[n+]3c2CCC3)cc1.[Br-] reading=-21
molecule="CCOCCCNS(=O)(=O)c1ccc(NC(=O)C2CC(=O)N(c3ccc(C)cc3)C2)cc1 (stereo not shown)" reading=11.4
molecule=CCN(c1ccccc1)S(=O)(=O)c1ccc2[nH]c(=O)[nH]c2c1 reading=8.82
molecule=COc1ccc(/C=C/c2cc(=O)c3cc(Cl)ccc3o2)cc1 reading=9.88
molecule="Cc1ccc(C(=O)Nc2ccccc2SCC2CSc3nc4ccccc4c(=O)n32)cc1 (stereo not shown)" reading=-39
molecule=COc1ccc(-n2c(-c3ccc(Br)cc3)c[n+]3c2CCc2ccccc2-3)cc1.[Br-] reading=-90.6
molecule=COCCN(Cc1cc2cc(C)ccc2n2nnnc12)C(=S)Nc1ccccc1C reading=17
molecule="COc1ccc(C2CCCN2C(=S)Nc2cccc(Cl)c2C)cc1OC (stereo not shown)" reading=2.08
molecule=Cc1ccc(-n2c(-c3ccccc3)c[n+]3c2CCC3)cc1.[Br-] reading=-2.23
molecule=CCn1ncc(NC(=O)Nc2cccc(C(F)(F)F)c2)c1C(N)=O reading=5.39
molecule=Cn1c(=O)c(Nc2ccc(Cl)cc2)c2c3c(cccc31)C(=O)c1ccccc1-2 reading=14.9
molecule="O=C(Nc1ccccc1SCC1CSc2nc3ccccc3c(=O)n21)c1ccccc1 (stereo not shown)" reading=-24.7
molecule=Cc1ccc(-n2c(-c3ccccc3)c[n+]3c2CCc2ccccc2-3)c(C)c1.[Br-] reading=-82.5
molecule=Cc1ccc(-c2c[n+]3c(n2-c2ccccc2)CCC3)cc1.[Br-] reading=1.57
molecule="CC1CN(C(=O)c2c(Br)cnn2C)CC(C)O1 (stereo not shown)" reading=4.32
molecule="O=c1[nH]c(C2CCCN(S(=O)(=O)c3ccc(F)cc3)C2)nc2c1nnn2Cc1ccccc1 (stereo not shown)" reading=7.82
molecule=COc1ccccc1-n1c(-c2ccccc2)c[n+]2c1CCc1ccccc1-2.[Br-] reading=-34.7
molecule=O=C(O)c1cc(NC(=O)c2ccc3c(c2)C(=O)N(Cc2ccccc2)C3=O)cc(C(=O)O)c1 reading=11.7
molecule=CN/C=C(/Cl)P(=O)(OC(C)C)OC(C)C reading=11
molecule=CCC(=O)/C=C1\Sc2ccccc2N1CC reading=4.38
molecule=COc1ccc(-n2c(-c3ccc(Cl)cc3)c[n+]3c2CCc2ccccc2-3)cc1.[Br-] reading=-70.3
molecule=O=C(COC(=O)c1nc(Cl)c(Cl)c(Cl)c1Cl)NCc1ccccc1 reading=3.59
molecule=CNC(=O)NC(=O)CSc1nnc(C(F)(F)F)n1C reading=8.32
molecule=COc1ccc(C(=O)OCc2nnc(-c3ccccc3)o2)cc1S(=O)(=O)N1CCOCC1 reading=4.07
molecule=CCN1/C(=C/c2ccc3ccc(C)cc3[n+]2CC)Sc2ccccc21.[I-] reading=-63.6
molecule=COc1ccc(-n2nc(C(=O)NCC(=O)N3CCCCC3)c3ccccc3c2=O)c(OC)c1 reading=15.2
molecule=CCOC(=O)c1c(NC(=O)c2ccc(N3C(=O)[C@@H]4[C@H](C3=O)[C@H]3C=C[C@@H]4C3)cc2)sc2c1CCCC2 reading=4.8

Recorded values, source paper PMC4336329.
